src = paper PMC12892976

Please respond with reported FLC FD (FLC:INH) for every item in the list.
tested on: Saccharomyces cerevisiae; test: checkerboard drug interaction (FICI, MICc); format: cell-based; settings: MIC-MICc fold decrease of fluconazole; negative = increase;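 further: simplified diagonal checkerboard screen pairing antifungals with FPPS inhibitors, FICI calculated under the Loewe additivity model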

Reference set (4 entries):
Chemical smiles: CCCCCCCCCCCCN1CCC[C@H]1C(=O)N[C@@H](CC(=O)OC)C(=O)OC
Test result: 4
--
Chemical smiles: CCCCCCCCCCCN1CCC[C@H]1C(=O)N[C@@H](CC(=O)OC)C(=O)OC
Test result: 2
--
Chemical smiles: CCCCCCCCCN1CCC[C@H]1C(=O)N[C@H](CC(=O)OC)C(=O)OC
Test result: 2
--
Chemical smiles: CCCCCCCCCN1CCC[C@H]1C(=O)N[C@H](CC(=O)O)C(=O)O
Test result: 2

Moving on to the next compound.
Query string: // lookup FLC FD (FLC:INH) for CCCCCCCCCCCN1CCC[C@H]1C(=O)N[C@H](CC(=O)O)C(=O)O
Result string: 4
